# target: T1, rhCD39-ECD-His (R&D Systems) (human, UniProt P49961 38-478)
# T1 construct: Bought protein; that entry runs on through the C-terminal transmembrane and cytoplasmic residues; also called recombinant human CD39 extracellular domain; soluble recombinant human CD39 (ENTDP1) ECD; not shown: His tag
# T1 sequence: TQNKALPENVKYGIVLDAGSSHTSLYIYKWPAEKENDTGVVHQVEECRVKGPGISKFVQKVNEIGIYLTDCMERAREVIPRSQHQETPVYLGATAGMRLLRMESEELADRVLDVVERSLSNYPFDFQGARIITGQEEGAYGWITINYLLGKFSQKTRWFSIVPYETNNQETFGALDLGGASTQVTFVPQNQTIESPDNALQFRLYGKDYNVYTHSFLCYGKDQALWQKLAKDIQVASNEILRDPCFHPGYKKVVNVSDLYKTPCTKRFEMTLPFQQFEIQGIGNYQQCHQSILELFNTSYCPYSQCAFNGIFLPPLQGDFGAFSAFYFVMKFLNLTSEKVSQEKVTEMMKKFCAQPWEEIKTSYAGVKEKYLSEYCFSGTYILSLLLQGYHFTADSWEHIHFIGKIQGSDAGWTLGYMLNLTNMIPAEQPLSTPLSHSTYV
# protocol_details: BLI (Octet), IgG on anti-human Fc sensor, rhCD39-ECD-His 10-300 nM, 1:1 fit
measurement_name: Kd (nM)
Form entry: value (nM) — number only.

binder 27590 (antibody, V domains shown) VH: QVQLVQSGAEVKKPGSSVKVSCKASGGTFSNYAISWVRQAPGQGLEWMGGIIPIFGTANYAQKFQGRVTITADESTSTAYMELSSLRSEDTAVYYCARGPTVTATTSIGTHNWFDPWGQGTLVTVSS VL: EIVLTQSPATLSLSPGERATLSCRASQSVSSYLAWYQQKPGQAPRLLIYDASNRATGIPARFSGSGSGTDFTLTISSLEPEDFAVYYCQQRNFYPPTFGGGTKVEIK , Kd observed: 131

binder 27596 (antibody, V domains shown) VH: QVQLVQSGAEVKKPGSSVKVSCKASGGTFSSYAISWVRQAPGQGLEWMGGIIPIFGTANYAQKFQGRVTITADESTSTAYMELSSLRSEDTAVYYCARDPLGIRKHWFDPWGQGTLVTVSS VL: EIVMTQSPATLSLSPGERATLSCRASQSVSSYLAWYQQKPGQAPRLLIYDASNRATGIPARFSGSGSGTDFTLTISSLEPEDFAVYYCQQHTVWPITFGGGTKVEIKR , Kd observed: 31.1
